Let's look at some binders and their measured AtheNA signal.
# testTarget: T1, Sm (sphingomyelin)
# T1 construct: in an ANA panel of nuclear antigens Sm is usually the Smith ribonucleoprotein antigen; Kept, but see recheck
# procedureSummary: AtheNA Multi-Lyte ANA, Ab at 12.5 ug/ml;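 further: monoclonal antibodies screened for binding to a panel of nuclear autoantigens (SSA, SSB, Sm, RNP, Scl-70, Jo-1, dsDNA, CentB, histones), with anti-HIV and anti-RSV antibodies as controls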
Respond using a number only.

Ab7968 (antibody, IgG1, V domains shown, Recombinant human antibody with IgG1 heavy chain backbone and kappa light chain constant; they begin at LVESGGG and MTQSP; also called mAb 7968; mAb7968) VH: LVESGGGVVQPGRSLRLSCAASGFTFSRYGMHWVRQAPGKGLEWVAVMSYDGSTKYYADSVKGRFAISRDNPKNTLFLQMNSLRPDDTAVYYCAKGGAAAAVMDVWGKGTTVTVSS VL: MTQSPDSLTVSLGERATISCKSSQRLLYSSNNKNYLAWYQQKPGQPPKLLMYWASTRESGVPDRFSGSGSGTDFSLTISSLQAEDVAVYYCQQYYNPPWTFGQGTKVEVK
7

Please examine the following record next.
Memo: Ab7955 (antibody, V domains shown, Recombinant human antibody with IgG1 heavy chain backbone and kappa light chain constant; also called mAb 7955; clone 19) VH: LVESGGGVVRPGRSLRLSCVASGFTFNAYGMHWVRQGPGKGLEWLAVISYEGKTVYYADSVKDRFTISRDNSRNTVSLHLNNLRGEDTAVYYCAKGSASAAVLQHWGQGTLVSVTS VL: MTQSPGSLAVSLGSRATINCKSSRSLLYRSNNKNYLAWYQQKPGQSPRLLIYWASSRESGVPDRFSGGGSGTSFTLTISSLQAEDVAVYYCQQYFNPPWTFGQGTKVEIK , reported AtheNA signal: 7
